For each entry below, report its GI50 value.
test system: Leukemia cell; experiment: Inhibition of human leukemia cells; format: functional
Give bare numbers, in µM.

molecule=N=C(N)N/N=C/c1c(-c2ccc(Cl)c([N+](=O)[O-])c2)nc2ccccn12 measured=1.7
molecule=COc1cc(OC)cc(-c2nc3sccn3c2/C=N/NC(=N)N)c1 measured=10.2
molecule=Cc1cn2c(/C=N/NC3=NCCN3)c(-c3ccc(Cl)c([N+](=O)[O-])c3)nc2s1 measured=0.676
molecule=COc1cc([N+](=O)[O-])c(OC)cc1-c1nc2sc(Cl)cn2c1/C=N\Nc1ccccn1 measured=9.12
molecule=N=C(N)N/N=C/c1c(-c2cc(Cl)sc2Cl)nc2sccn12 measured=1
molecule=Cc1cn2c(/C=N/NC(=N)NN)c(-c3ccc(Cl)c([N+](=O)[O-])c3)nc2s1 measured=6.31

State the recorded GI50 for every item in the following list.
1. COc1cc([N+](=O)[O-])c(OC)cc1-c1nc2sc(Cl)cn2c1/C=N\NC(=N)N/N=C\c1c(-c2cc(OC)c([N+](=O)[O-])cc2OC)nc2sc(Cl)cn12
2. CC(/C=N/NC(=N)N)=N\NC(=N)N [MITOGUAZONE]

2.34
7.94

State the recorded GI50 for every item in the following list.
1. Cc1cn2c(/C=N/Nc3ccccn3)c(-c3ccc(Cl)c([N+](=O)[O-])c3)nc2s1
2. N=C(N)N/N=C/c1c(-c2ccsc2)nc2n1CCS2
3. Cc1cc(-c2nc3sccn3c2/C=N/NC(=N)N)c(C)s1

[16.6, 19.1, 15.5]

State the recorded GI50 for every item in the following list.
1. N=C(N)N/N=C/c1c(-c2ccc(Cl)c([N+](=O)[O-])c2)nc2sc3ccccc3n12
2. Cc1cn2c(/C=N/NC(=N)N)c(-c3cccs3)nc2s1
3. N=C(N)N/N=C/c1c(-c2cc(Cl)sc2Cl)nc2n1CCS2
4. COc1cc([N+](=O)[O-])c(OC)cc1-c1nc2sc(Cl)cn2c1/C=N\NC1=NCCN1

0.138
1.82
10.2
2.63

State the recorded GI50 for every item in the following list.
1. Cc1cc(-c2nc3sc(C)cn3c2/C=N/NC(=N)N)c(C)s1
2. N=C(N)N/N=C/c1c(-c2ccsc2)nc2sccn12
3. Cc1cn2c(/C=N/NC(=N)N)c(-c3ccsc3)nc2s1
4. Cc1cc(-c2nc3n(c2/C=N/NC(=N)N)CCS3)c(C)s1

1: 47.9; 2: 6.92; 3: 7.76; 4: 20.9

---

tested on: Cancer cell lines; experiment: Inhibition of human non-small cell lung cancer cells; assay type: functional
endpoint_label: GI50 (µM)
Answers are plain numbers, in µM.

Reference set, count: 2
compound=Cc1cn2c(/C=N/NC3=NCCN3)c(-c3ccc(Cl)c([N+](=O)[O-])c3)nc2s1 u=µM measured=1.55
compound=Cc1nn2c(/C=N/NC(=N)N)c(-c3ccc(Cl)c([N+](=O)[O-])c3)nc2s1 u=µM measured=3.31

State the recorded GI50 for every item in the following list.
1. N=C(N)N/N=C/c1c(-c2ccc(Cl)c([N+](=O)[O-])c2)nc2ccccn12
2. Cc1cn2c(/C=N/NC(=N)N)c(-c3cccs3)nc2s1

1. 1.7
2. 7.76

State the recorded GI50 for every item in the following list.
1. Cc1cc(-c2nc3n(c2/C=N/NC(=N)N)CCS3)c(C)s1
2. N=C(N)N/N=C/c1c(-c2ccsc2)nc2n1CCS2
3. Cc1cn2c(/C=N/NC(=N)N)c(-c3ccsc3)nc2s1
4. CCOC(=O)c1nc2sc(Cl)cn2c1/C=N\NC(=N)N
5. N=C(N)N/N=C/c1c(-c2ccc(Cl)c([N+](=O)[O-])c2)nc2sc3ccccc3n12

[17, 28.8, 13.8, 18.2, 0.676]

GI50 recorded for this compound, CC(/C=N/NC(=N)N)=N\NC(=N)N [MITOGUAZONE] , is 25.1

// data source = ChEMBL document CHEMBL1142319
